# Test system: Wnt5a (protein binding on small-molecule microarray)
# measurement description: Wnt5a binders on small-molecule microarray, primary screen, biophysical, 635/667 nm fluorescence (AID 1142);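 further: fluorescence read at 667 nm with signal to noise per printed feature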
# setup conditions: 635 nm fluorescence, higher = more signal
In this scheme, each record receives a class according to its composite z-score; the ranges are low: < -0.02; intermediate: ≥ -0.02 and < 0.3; high: ≥ 0.3

[
  {
    "compound": "NC(=O)NCC#Cc1ccc2c(c1)[C@]1(C(=O)N2)[C@H](C(=O)N2CCCCCCC2)[C@H]2C(=O)O[C@H](c3ccccc3)[C@H](c3ccccc3)N2[C@@H]1c1ccc(OCCO)cc1",
    "category": "high"
  },
  {
    "compound": "O=C1O[C@H](c2ccccc2)[C@H](c2ccccc2)N2[C@H]1[C@@H](C(=O)N1CCN(c3ncccn3)CC1)[C@]1(C(=O)Nc3ccccc31)[C@H]2c1ccc(OCCO)cc1",
    "category": "high"
  },
  {
    "compound": "CC(C)c1ccc(NN2C(C(O)c3cccc(O)c3)C=CC3C(=O)N(c4ccccc4)C(=O)C32)cc1 (centres undefined)",
    "category": "intermediate"
  },
  {
    "compound": "CCCCCN1CC=CC23O[C@@H]4C=CCOC(=O)[C@@H]4[C@H]2C(=O)N(CCCO)[C@@H]3C1=O (some centres undefined)",
    "category": "low"
  },
  {
    "compound": "COCCOC(=O)N1C(=O)[C@@]2(c3ccccc31)[C@H](C(=O)NC[C@H](O)c1ccccc1)[C@H]1C(=O)O[C@H](c3ccccc3)[C@H](c3ccccc3)N1[C@@H]2c1ccc(OCCO)cc1",
    "category": "high"
  },
  {
    "compound": "COC(=O)[C@@]1(Cc2ccc(OC)cc2)[C@H]2c3cc(C(=O)N(C)C)n(Cc4c(OC)[nH]cc(C)c4=O)c3C[C@H]2CN1C(=O)c1ccccc1",
    "category": "low"
  },
  {
    "compound": "COCCOC(=O)N1C(=O)[C@@]2(c3cc(C#CCC(C(=O)OC)C(=O)OC)ccc31)[C@H](C(=O)N1CCN(c3ncccn3)CC1)[C@H]1C(=O)O[C@H](c3ccccc3)[C@H](c3ccccc3)N1[C@@H]2c1ccc(OCCO)cc1",
    "category": "intermediate"
  },
  {
    "compound": "N#Cc1ccc(NN2C(C(O)C3CCCCC3)C=CC3C(=O)N(c4ccccc4)C(=O)C32)cc1 (centres undefined)",
    "category": "high"
  },
  {
    "compound": "O=C1OCC=C[C@H]2OC34C=CCN(c5ccc6ccccc6c5)C(=O)[C@H]3N(CCCO)C(=O)[C@@H]4[C@@H]12 (some centres undefined)",
    "category": "low"
  },
  {
    "compound": "CC(C)C(=C=CC[C@@H](O)c1ccccc1OCCO)C[C@@H](O)c1ccccn1",
    "category": "low"
  },
  {
    "compound": "Cc1c(NC(=O)CC#N)c(=O)n(-c2ccccc2)n1C",
    "category": "intermediate"
  },
  {
    "compound": "CCOC(=O)C[C@H]1[C@H](OC(=O)c2ccccc2-c2ccccc2)[C@@H](NC(=O)Cc2ccc(OC)cc2)c2cc(OCCCO)ccc2N1C(=O)c1ccccc1",
    "category": "intermediate"
  },
  {
    "compound": "Cc1ccc(S[C@]2(C(=O)NC3CC3)CC(=O)N(Cc3ccccc3)[C@@H]2c2ccc(CO)cc2)cc1",
    "category": "low"
  }
]
